This section presents compounds with their documented EC50 values.
- Tgt: MATK (HYL, CTK) (Homo sapiens, UniProt P42679)
- Sequence (P42679 whole entry): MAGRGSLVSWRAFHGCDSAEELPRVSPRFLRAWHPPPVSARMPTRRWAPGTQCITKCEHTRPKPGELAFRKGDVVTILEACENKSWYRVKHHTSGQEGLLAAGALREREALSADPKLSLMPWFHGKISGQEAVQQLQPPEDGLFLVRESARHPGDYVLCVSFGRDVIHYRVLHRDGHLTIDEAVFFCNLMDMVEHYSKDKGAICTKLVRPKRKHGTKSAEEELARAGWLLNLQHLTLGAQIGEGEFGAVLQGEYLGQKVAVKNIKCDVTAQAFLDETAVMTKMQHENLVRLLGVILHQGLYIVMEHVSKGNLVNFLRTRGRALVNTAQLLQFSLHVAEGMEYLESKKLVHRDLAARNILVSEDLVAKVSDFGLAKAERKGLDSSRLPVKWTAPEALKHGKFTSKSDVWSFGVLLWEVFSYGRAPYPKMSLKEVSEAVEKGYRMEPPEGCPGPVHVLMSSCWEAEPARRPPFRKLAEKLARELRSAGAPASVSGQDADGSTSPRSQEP
- Protocol: SelectScreen kinase specificity survey
- Details: estimated, abridged dose response curve, read-out: Kinase inhibitory activity EC50

compound="CCN(CC)CCNc1ccc2ncn3c4ccc(O)cc4c(=O)c1c23 [Symadex, reference compound]" value_reported="> 5 µM"

Proceed to the following item.
Query :: Return value of EC50 for input CN(C)CCCNc1ccc2ncn3c4ccc5[nH]ncc5c4c(=O)c1c23 [Compound (IV)] , no commentary.
Result :: > 5 µM

---

- Tgt: SGK (SGK1) (Homo sapiens, UniProt O00141)
- Construct: purchased Invitrogen, Inc. (SelectScreen platform)
- Sequence (O00141 whole entry): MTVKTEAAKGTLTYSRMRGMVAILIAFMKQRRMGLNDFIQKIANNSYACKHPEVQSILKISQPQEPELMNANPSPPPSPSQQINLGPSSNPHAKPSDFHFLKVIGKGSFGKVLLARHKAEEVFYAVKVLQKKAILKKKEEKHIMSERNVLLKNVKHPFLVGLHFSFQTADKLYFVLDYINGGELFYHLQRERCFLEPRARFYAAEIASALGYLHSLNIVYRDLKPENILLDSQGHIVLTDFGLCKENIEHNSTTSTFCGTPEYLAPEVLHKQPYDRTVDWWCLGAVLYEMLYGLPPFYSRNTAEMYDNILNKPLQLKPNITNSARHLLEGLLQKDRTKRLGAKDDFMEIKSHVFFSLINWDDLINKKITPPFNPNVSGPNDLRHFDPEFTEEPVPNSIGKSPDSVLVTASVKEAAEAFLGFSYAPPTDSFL
- Protocol: SelectScreen kinase specificity survey
- Format: biochemical
- Details: estimated, abridged dose response curve, read-out: Kinase inhibitory activity EC50
This section presents molecules with their documented pEC50 values.
On this scale, pEC50 is minus log10 of a concentration expressed in M (mol/L).

Query :: Return value of pEC50 for input CCN(CC)CCNc1ccc2ncn3c4ccc(O)cc4c(=O)c1c23 [Symadex, reference compound] , no commentary.
Result :: 5.57

Query :: Return value of pEC50 for input CN(C)CCCNc1ccc2ncn3c4ccc5[nH]ncc5c4c(=O)c1c23 , no commentary.
Result :: 5.46
